// provenance: ChEMBL document CHEMBL5579832

Target Desc: Ubiquitin carboxyl-terminal hydrolase 1/WD repeat-containing protein 48 (Homo sapiens, UniProt O94782)
Sequence (O94782 whole entry): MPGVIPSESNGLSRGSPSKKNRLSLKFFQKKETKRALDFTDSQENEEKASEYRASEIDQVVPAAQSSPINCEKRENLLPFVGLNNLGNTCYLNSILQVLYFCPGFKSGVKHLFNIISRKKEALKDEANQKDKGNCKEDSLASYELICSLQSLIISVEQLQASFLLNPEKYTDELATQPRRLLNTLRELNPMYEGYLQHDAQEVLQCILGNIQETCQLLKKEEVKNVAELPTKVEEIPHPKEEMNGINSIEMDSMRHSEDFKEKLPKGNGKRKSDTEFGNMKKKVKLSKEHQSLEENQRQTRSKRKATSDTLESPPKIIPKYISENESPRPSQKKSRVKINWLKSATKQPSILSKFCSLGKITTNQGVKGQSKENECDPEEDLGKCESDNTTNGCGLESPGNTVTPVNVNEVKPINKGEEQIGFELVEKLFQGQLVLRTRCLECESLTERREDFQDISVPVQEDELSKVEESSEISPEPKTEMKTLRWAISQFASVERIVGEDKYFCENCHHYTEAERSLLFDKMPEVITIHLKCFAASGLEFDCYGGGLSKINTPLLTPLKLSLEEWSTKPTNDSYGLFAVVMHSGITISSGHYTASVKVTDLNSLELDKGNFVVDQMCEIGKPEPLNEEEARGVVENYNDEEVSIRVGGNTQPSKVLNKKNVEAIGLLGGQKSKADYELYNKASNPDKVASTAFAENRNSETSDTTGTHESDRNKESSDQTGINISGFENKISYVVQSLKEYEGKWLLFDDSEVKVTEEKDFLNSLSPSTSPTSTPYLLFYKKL
Sequence (Q8TAF3 whole entry, further chain): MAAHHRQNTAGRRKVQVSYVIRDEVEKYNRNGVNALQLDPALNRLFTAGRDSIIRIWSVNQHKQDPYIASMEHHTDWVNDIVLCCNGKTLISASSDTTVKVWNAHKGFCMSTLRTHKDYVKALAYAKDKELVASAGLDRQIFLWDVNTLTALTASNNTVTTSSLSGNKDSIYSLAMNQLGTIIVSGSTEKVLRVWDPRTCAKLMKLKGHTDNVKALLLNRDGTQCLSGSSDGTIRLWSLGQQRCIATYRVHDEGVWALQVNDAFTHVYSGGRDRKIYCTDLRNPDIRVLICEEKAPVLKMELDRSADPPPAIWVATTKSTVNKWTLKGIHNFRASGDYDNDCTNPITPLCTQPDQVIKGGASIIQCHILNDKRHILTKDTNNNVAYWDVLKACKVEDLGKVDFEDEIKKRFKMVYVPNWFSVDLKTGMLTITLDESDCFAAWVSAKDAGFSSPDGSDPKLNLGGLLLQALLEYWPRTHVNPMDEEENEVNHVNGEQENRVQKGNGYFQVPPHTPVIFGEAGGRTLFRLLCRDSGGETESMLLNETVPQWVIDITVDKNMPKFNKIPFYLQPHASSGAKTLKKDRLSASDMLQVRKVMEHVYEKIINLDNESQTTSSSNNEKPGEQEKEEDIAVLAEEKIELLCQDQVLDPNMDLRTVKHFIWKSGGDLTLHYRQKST
Protocol Details: Inhibition of USP1-UAF1 complex (unknown origin) using Ub-7-amido-4-methylcoumarin as substrate incubated for 2 hrs by fluorescence based analysis
pIC50: −log10 of the molar value.
Listed next: entries and their corresponding pIC50.

Study these solved cases before continuing.
>  <Smiles String>
CC(C)n1cc(C(F)(F)F)nc1-c1ccc(Cn2c(=O)ccc3cnc(-c4cccc5ncsc45)nc32)cc1

>  <pIC50>
< 5.00

$$$$
>  <Smiles String>
COc1cccc(OC)c1-c1ncc2ccc(=O)n(Cc3ccc(-c4nc(C(F)(F)F)cn4C(C)C)cc3)c2n1

>  <pIC50>
7.73

$$$$
>  <Smiles String>
CC(C)n1cc(C(F)(F)F)nc1-c1ccc(Cn2c(=O)ccc3cnc(-c4cccc5cnn(C)c45)nc32)cc1

>  <pIC50>
< 5.00

$$$$

Field: next molecule
If you can, please state the reported pIC50 value of CC(C)n1cc(C(F)(F)F)nc1-c1ccc(Cn2c(=O)ccc3cnc(-c4ccn(C)n4)nc32)cc1 . < 5.00
